// data source = the supplement of paper PMC10567573

Kindly state protein stability index for each of the entries shown.
B1: PBXIP1 (parent)
chain: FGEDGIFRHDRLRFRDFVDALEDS

variants of: B1; assay: protein stability index of a GFP-peptide fusion (GPS, HEK-293T) (PSI 1-6); higher = more stable; details: c terminus: a fixed tail appended;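 note: lentivirally expressed fusions sorted by FACS into six bins by GFP to DsRed ratio, PSI derived from sequencing read proportions per bin multiplied by bin number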
One number for each entry.

Check out these entries, answers already filled in.
(Q) Give its protein stability index value. Item: V18T
(A) 3.27

(Q) Give its protein stability index value. Item: D4Q
(A) 1.83

(Q) Give its protein stability index value. Item: H9C
(A) 2.47

(Q) Give its protein stability index value. Item: D16F
(A) 2.12

(Q) Give its protein stability index value. Item: I6T
(A) 2.95

(Q) Give its protein stability index value. Item: I6N
(A) 3.46

(Q) Give its protein stability index value. Item: L12E
(A) 3.51

(Q) Give its protein stability index value. Item: E3M
(A) 2.45

Count: 5. Required value per item: protein stability index.
1. H9Q
2. R13G
3. E22S
4. I6W
5. S24M

(A)
1: 2.42; 2: 2.9; 3: 2.71; 4: 1.96; 5: 2.2
